species: Oryctolagus cuniculus; details: Plasma, 10 nM
Description: Inhibition of Lp-PLA2 in rabbit plasma using [3H]PAF as substrate at 10 nM incubated for 5 mins prior to substrate addition measured after 10 mins by liquid scintillation counting analysis relative to control
Reported inhibition values follow for various compounds
Please state the figure in %; there is no need to write the unit.

CN(Cc1ccccn1)Cc1nnc(Cn2c(SCc3ccc(F)cc3)nc(=O)c3c2CCC3)n1Cc1ccc(-c2ccc(C(F)(F)F)cc2)cc1	36
CN(CCN1CCCC1)Cc1nnc(Cn2c(SCc3ccc(F)cc3)nc(=O)c3c2CCC3)n1Cc1ccc(-c2ccc(C(F)(F)F)cc2)cc1	76
CCN(CC)CCN(C)Cc1nnc(Cn2c(SCc3ccc(F)cc3)nc(=O)c3c2CCC3)n1Cc1ccc(-c2ccc(C(F)(F)F)cc2)cc1	72

Input line: In one line, give reported inhibition of the entry CC(C)N(CCNCc1nnc(Cn2c(SCc3ccc(F)cc3)nc(=O)c3c2CCC3)n1Cc1ccc(-c2ccc(C(F)(F)F)cc2)cc1)C(C)C .
Output line: 41

Input line: In one line, give reported inhibition of the entry CC(c1nnc(Cn2c(SCc3ccc(F)cc3)nc(=O)c3c2CCC3)n1Cc1ccc(-c2ccc(C(F)(F)F)cc2)cc1)N(C)CCN(C)C (configuration not stated) .
Output line: 71

Input line: In one line, give reported inhibition of the entry CC(c1nnc(Cn2c(SCc3ccc(F)cc3)nc(=O)c3c2CCC3)n1Cc1ccc(-c2ccc(C(F)(F)F)cc2)cc1)N(C)CCCN(C)C (configuration not stated) .
Output line: 71

Input line: In one line, give reported inhibition of the entry CCN(CC)CCN(C)C(C)c1nnc(Cn2c(SCc3ccc(F)cc3)nc(=O)c3c2CCC3)n1Cc1ccc(-c2ccc(C(F)(F)F)cc2)cc1 (configuration not stated) .
Output line: 76

---

organism: Oryctolagus cuniculus; conditions: Plasma, 100 nM
Description: Inhibition of Lp-PLA2 in rabbit plasma using [3H]PAF as substrate at 100 nM incubated for 5 mins prior to substrate addition measured after 10 mins by liquid scintillation counting analysis relative to control
experimental.readout: inhibition
Could you write the number and then its unit?

CCN(CC)CCN(C)Cc1cnc(Cn2c(SCc3ccc(F)cc3)nc(=O)c3c2CCC3)n1Cc1ccc(-c2ccc(C(F)(F)F)cc2)cc1	89%
CN(CCN1CCCCC1)Cc1cnc(Cn2c(SCc3ccc(F)cc3)nc(=O)c3c2CCC3)n1Cc1ccc(-c2ccc(C(F)(F)F)cc2)cc1	92%
O=c1nc(SCc2ccc(F)cc2)n(Cc2nnc(CCCN3CCCCC3)n2Cc2ccc(-c3ccc(C(F)(F)F)cc3)cc2)c2c1CCC2	96%
O=c1nc(SCc2ccc(F)cc2)n(Cc2nnc(CCCN3CCCC3)n2Cc2ccc(-c3ccc(C(F)(F)F)cc3)cc2)c2c1CCC2	97%
CN(CCN1CCCCC1)Cc1nnc(Cn2c(SCc3ccc(F)cc3)nc(=O)c3c2CCC3)n1Cc1ccc(-c2ccc(C(F)(F)F)cc2)cc1	97%

Shifting focus to the compound that follows.
Input line: In one line, give reported inhibition of the entry CCN(CC)CCN(Cc1ccc(-c2ccc(C(F)(F)F)cc2)cc1)C(=O)Cn1c(SCc2ccc(F)cc2)nc(=O)c2c1CCC2 .
Output line: 99%

---

species on record: Oryctolagus cuniculus; conditions: Plasma, 10 nM
If the reported inhibition equals or exceeds 50%, assign Yes. If not, assign No.

Observe how each entry below is paired with its result.
CCN(CC)CCCc1nnc(Cn2c(SCc3ccc(F)cc3)nc(=O)c3c2CCC3)n1Cc1ccc(-c2ccc(C(F)(F)F)cc2)cc1	Yes
CN(C)[C@@H]1CCN(Cc2nnc(Cn3c(SCc4ccc(F)cc4)nc(=O)c4c3CCC4)n2Cc2ccc(-c3ccc(C(F)(F)F)cc3)cc2)C1	Yes

Input line: Hi team, for CCN(CC)CCN(Cc1nnc(Cn2c(SCc3ccc(F)cc3)nc(=O)c3c2CCC3)n1Cc1ccc(-c2ccc(C(F)(F)F)cc2)cc1)C(C)C , is the recorded inhibition at or above 50%?
Output line: No

Input line: Hi team, for CCN(CC)CCN(C)Cc1cnc(Cn2c(SCc3ccc(F)cc3)nc(=O)c3c2CCC3)n1Cc1ccc(-c2ccc(C(F)(F)F)cc2)cc1 , is the recorded inhibition at or above 50%?
Output line: Yes

---

Reported inhibition values follow for various molecules
organism: Oryctolagus cuniculus; details: Plasma, 100 nM
Please state the figure in %; there is no need to write the unit.

Consider the reported inhibition for these molecules:
CCN(CC)CCCCc1nnc(Cn2c(SCc3ccc(F)cc3)nc(=O)c3c2CCC3)n1Cc1ccc(-c2ccc(C(F)(F)F)cc2)cc1	95
CN(CCN1CCCC1)Cc1nnc(Cn2c(SCc3ccc(F)cc3)nc(=O)c3c2CCC3)n1Cc1ccc(-c2ccc(C(F)(F)F)cc2)cc1	97

Input line: In one line, give reported inhibition of the entry CN(CC(=O)O)Cc1nnc(Cn2c(SCc3ccc(F)cc3)nc(=O)c3c2CCC3)n1Cc1ccc(-c2ccc(C(F)(F)F)cc2)cc1 .
Output line: 74

Input line: In one line, give reported inhibition of the entry CCN(CC)CCN(Cc1nnc(Cn2c(SCc3ccc(F)cc3)nc(=O)c3c2CCC3)n1Cc1ccc(-c2ccc(C(F)(F)F)cc2)cc1)C(C)C .
Output line: 95

---

Reported inhibition values follow for various compounds
species: Oryctolagus cuniculus; conditions: Plasma, 10 nM
Please state the figure in %; there is no need to write the unit.

Consider the reported inhibition for these compounds:
O=c1nc(SCc2ccc(F)cc2)n(Cc2nnc(CCCN3CCCCC3)n2Cc2ccc(-c3ccc(C(F)(F)F)cc3)cc2)c2c1CCC2	76
CN(CCN1CCCCC1)Cc1cnc(Cn2c(SCc3ccc(F)cc3)nc(=O)c3c2CCC3)n1Cc1ccc(-c2ccc(C(F)(F)F)cc2)cc1	54
CCN(CC)CCCCc1nnc(Cn2c(SCc3ccc(F)cc3)nc(=O)c3c2CCC3)n1Cc1ccc(-c2ccc(C(F)(F)F)cc2)cc1	74

Shifting focus to the compound that follows.
Input line: In one line, give reported inhibition of the entry CN(C)CCCN(C)Cc1nnc(Cn2c(SCc3ccc(F)cc3)nc(=O)c3c2CCC3)n1Cc1ccc(-c2ccc(C(F)(F)F)cc2)cc1 .
Output line: 73

---

species: Oryctolagus cuniculus; details: Plasma, 10 nM
Reported inhibition values follow for various compounds
Please state the figure in %; there is no need to write the unit.

O=c1nc(SCc2ccc(F)cc2)n(Cc2nnc(CNCCN3CCCCC3)n2Cc2ccc(-c3ccc(C(F)(F)F)cc3)cc2)c2c1CCC2	33

Input line: In one line, give reported inhibition of the entry CN(C)[C@H]1CCN(Cc2nnc(Cn3c(SCc4ccc(F)cc4)nc(=O)c4c3CCC4)n2Cc2ccc(-c3ccc(C(F)(F)F)cc3)cc2)C1 .
Output line: 46

Input line: In one line, give reported inhibition of the entry CN(C)CCN(C)Cc1nnc(Cn2c(SCc3ccc(F)cc3)nc(=O)c3c2CCC3)n1Cc1ccc(-c2ccc(C(F)(F)F)cc2)cc1 .
Output line: 77
